# credit: a melting point compilation (Tetko et al.)

Label satisfied when melting point is strictly below 100 °C; at or above that, label not satisfied.

COMPOUND: O=S(=O)(Cl)c1ccc(CBr)cc1
CATEGORY: satisfied
--
COMPOUND: CC1(C(=O)O)CCCC2(C)c3cc(O)ccc3CCC12 (stereo unspecified)
CATEGORY: not satisfied
--
COMPOUND: CCOC(=O)CCC(=O)CC1(O)C2(Cl)C3(Cl)C4(Cl)C(Cl)(Cl)C5(Cl)C3(Cl)C1(Cl)C5(Cl)C42Cl (stereo unspecified)
CATEGORY: satisfied

Now look at this entry.
*Q* A record lists "CP(=O)(c1ccccc1)c1ccccc1" . Is its melting point below 100 °C?
*A* not satisfied

###

Listed below: melting point values for each entry.
Numbers only; they are read as °C.

See these solved cases before continuing.
MOLECULE: CC(=O)C(C(C)=O)=C1SCCS1
ENDPOINT_RESULT: 91

MOLECULE: CC(=O)c1ccc(N=C=O)cc1
ENDPOINT_RESULT: 34

MOLECULE: Cc1ccc(C)c(CCC(C)(C)C(=O)O)c1
ENDPOINT_RESULT: 78

MOLECULE: COC1=C(Br)C(=O)C2(C)CCC1C2(C)C (stereo unspecified)
ENDPOINT_RESULT: 104

MOLECULE: N/N=C(/C(=O)c1cccc2ccccc12)c1ccccc1
ENDPOINT_RESULT: 152

MOLECULE: CCCCCC(O)C=CC1C(O)CC(=O)C1CC=CCCCC(=O)O (stereo unspecified)
ENDPOINT_RESULT: 67

MOLECULE: O=C(O)CCc1ccc(F)cc1
ENDPOINT_RESULT: 90

MOLECULE: Cn1ccc2c1CC(C)(C)CC2=O
ENDPOINT_RESULT: 109

MOLECULE: Brc1cnc(N2CCCC2)nc1OCc1ccccc1
ENDPOINT_RESULT: 107

MOLECULE: CCCCc1nc(Cl)c(CO)n1Cc1ccc(-c2ccccc2-c2nn[nH]n2)cc1
ENDPOINT_RESULT: 184

*Q* Any idea what melting point was measured for "O=C(O)c1cc(O)ccc1F" ?
*A* 205

*Q* // repeat for COC(=O)C(Cc1ccc(O)cc1)NC(=O)OC(C)(C)C (stereo unspecified) and report
*A* 107

###

Doc: threshold 60 °C (exclusive). Items with melting point beneath it return T; others return F.

MOLECULE: Cc1ccc(S(=O)(=O)Nc2cc(N)c([N+](=O)[O-])cc2NS(=O)(=O)c2ccc(C)cc2)cc1
CATEGORY: F

MOLECULE: O=CNC(O)C(Cl)(Cl)Cl (stereo not drawn)
CATEGORY: F

Below: the item to evaluate.
*Q* Please determine if "Cc1nc(=O)c2ccccc2[nH]1" is below 60 °C in terms of melting point.
*A* F

###

EXPERIMENTAL_ENDPOINT: melting point (°C)
Express the result in °C but write the number alone.

MOLECULE: O=C(CBr)c1cccc(C(F)(F)F)c1
melting point / °C: 22
--
MOLECULE: [O-][P+](c1ccccc1)(c1ccccc1)C1C=C(c2ccccc2)C=C(c2ccccc2)S1 (stereo not given)
melting point / °C: 174
--
MOLECULE: CC(C)(C)c1cccc2ccccc12
melting point / °C: -11.3

*Q* Dear colleague, I am looking for the recorded melting point of the following molecule: CC12CCc3c(ccc4cc(O)ccc34)C1CCC2=O (stereo not given)
*A* 258

###

Parameter: melting point. Scope: all listed entries.
Expressed in °C, but write only the number.

As a guide, the following entries are already answered.
COMPOUND: CSC(=O)c1c(C(F)F)nc(C(F)(F)F)c(C(=O)SC)c1CC(C)C
UNIT_OF_MEASUREMENT: °C
ENDPOINT_RESULT: 65
//
COMPOUND: FC(F)(F)CCl
UNIT_OF_MEASUREMENT: °C
ENDPOINT_RESULT: -106
//
COMPOUND: CC(=O)Oc1c[nH]c2ccccc12
UNIT_OF_MEASUREMENT: °C
ENDPOINT_RESULT: 129
//
COMPOUND: CC(C)Cc1ccc(CC(=O)O)cc1
UNIT_OF_MEASUREMENT: °C
ENDPOINT_RESULT: 86
//
COMPOUND: O=C(O)C1Cc2cc3c(cc21)OCO3 (stereo unspecified)
UNIT_OF_MEASUREMENT: °C
ENDPOINT_RESULT: 150

*Q* Fill in the blank: the reported melting point of "COc1cc(N)c(C#N)cc1OC" is ____.
*A* 99

*Q* Request: "O=Cc1cc([N+](=O)[O-])ccc1N1CCOCC1"
*A* 115

*Q* Here is the next compound: "Cc1ccc([Si](C)(c2ccc(C)cc2)c2ccc(C)cc2)cc1"
*A* 92

*Q* And then "C1CSCSC1" , what is it?
*A* 54

*Q* Lookup OC(CS)C(O)CS (stereo unspecified)
*A* 83

*Q* Likewise for "Brc1sc(Br)c2c1OCCO2" ?
*A* 98

*Q* Query "Nc1nnc(-c2ccccc2)c(Nc2ccc(Cl)cc2)n1" next
*A* 297

*Q* Queued: "Cc1cc(O)cc(O)c1C"
*A* 136

*Q* Next up: "N#Cc1c(N2CCCC2)nc(N)c2c(-c3ccccc3)cc(-c3ccccc3)nc12"
*A* 236

*Q* What about this compound? "COc1ccccc1N1CCN(CCCNc2cc(=O)n(C)c(=O)n2C)CC1"
*A* 156

*Q* Also "CC(C)(C)OC(=O)N[C@@H](Cc1ccc(Cl)cc1Cl)C(=O)O" ?
*A* 132

*Q* Ok, now "COC(=O)c1cncn1C"
*A* 57

###

Entries are grouped by melting point into these classes: range A (below 100 °C), range B (100 °C to below 200 °C), range C (200 °C or more)

Reference set (6 entries):
COMPOUND: CCOC(=O)c1nn(-c2ccc(C)cc2)c(C)c1C(=O)c1noc(-c2ccc(C)cc2)c1S(=O)(=O)c1ccccc1
CATEGORY: range B
--
COMPOUND: Cc1cc(C(=O)O)cc(C)c1[N+](=O)[O-]
CATEGORY: range C
--
COMPOUND: Cc1c(C)c2c(c3c1C(=O)C3)CC2=O
CATEGORY: range C
--
COMPOUND: ClC1=C(Cl)C2(Cl)C3C4OC4(Cl)C(Cl)C3C1(Cl)C2(Cl)Cl (configuration not stated)
CATEGORY: range B
--
COMPOUND: O=C1NN=C(C(F)(F)F)C1=NNc1cccc([N+](=O)[O-])c1
CATEGORY: range C
--
COMPOUND: c1cnc2cccnc2c1
CATEGORY: range A

Continue with the next compound.
*Q* Entry "CCC=C(C)C" belongs to which category?
*A* range A

###

The label depends only on melting point: true (1) if it is at least 60 °C, false (0) if it is smaller.

COMPOUND: CN1CCN(c2ncc(Br)c(OCc3ccccc3)n2)CC1
CATEGORY: true (1)

COMPOUND: CCC(C(=O)NC(=O)NC(C)=O)c1ccccc1 (configuration not stated)
CATEGORY: true (1)

COMPOUND: CC(=O)OC[C@H]1O[C@@H](OC(C)=O)[C@H](OC(C)=O)[C@@H](OC(C)=O)[C@H]1OC(C)=O
CATEGORY: true (1)

COMPOUND: N#CC1C(=O)CC(=O)CC1c1ccccc1 (configuration not stated)
CATEGORY: true (1)

COMPOUND: Cc1ccsc1
CATEGORY: false (0)

COMPOUND: CC1(O)CC(c2ccccc2)C([N+](=O)[O-])C(c2ccccc2N)O1 (configuration not stated)
CATEGORY: true (1)

COMPOUND: CCCCCCCCCCCCCCCC(=O)OCCC
CATEGORY: false (0)

*Q* Given the entry CC1CCCCC1C (configuration not stated) , answer whether its melting point meets or surpasses 60 °C.
*A* false (0)

###

Labelling: melting point reported below 100 °C becomes TRUE; at or above becomes FALSE.

COMPOUND: O=C(O)CONC(=O)c1ccccc1
CATEGORY: FALSE

COMPOUND: O=C1c2ccccc2C(=O)c2c(O)c(O)cc(O)c21
CATEGORY: FALSE

COMPOUND: Nc1c(Cl)cc(Br)cc1Cl
CATEGORY: TRUE

COMPOUND: N#C/C(=C\c1ccccc1)c1nc2ccccc2s1
CATEGORY: FALSE

*Q* Strictly below 100 °C in melting point? CNP(=O)(OC)Oc1ccc(C(C)(C)C)cc1Cl (stereo not drawn)
*A* TRUE

*Q* Next compound up: CNC1CCC(c2ccc(Cl)c(Cl)c2)c2ccccc21 (stereo not drawn)
*A* FALSE

*Q* Param item: "CCSc1nc(N)c(Br)c(O)n1"
*A* FALSE

###

# reported melting point; entries follow
Answer format: numeric, °C implied, no suffix.

MOLECULE: CCOC(=O)c1ccc(OC)cn1
ENDPOINT_RESULT: 39
--
MOLECULE: C[C@H]1C(=O)[C@H]2[C@@H](C[C@H]1C#N)C2(C)C
ENDPOINT_RESULT: 54.5
--
MOLECULE: COc1ccc(F)c(O)c1F
ENDPOINT_RESULT: 75
--
MOLECULE: O=C(O)c1ccc(OCC(F)(F)F)nc1
ENDPOINT_RESULT: 174
--
MOLECULE: Cc1c(C)c(C)c2c(c1C)CCC2=O
ENDPOINT_RESULT: 154
--
MOLECULE: CC(=O)CCc1cc2c(cc1[N+](=O)[O-])CCC(C)N2 (centres undefined)
ENDPOINT_RESULT: 95

Let us move to another entry and its melting point.
*Q* Entry under review: "NC(=O)CBr" . Reported melting point?
*A* 89
